system: OCI-AML2; assay: cell viability relative to vehicle control; higher = less cytotoxic; settings: 10 µM; SRSF2 genotype: wt/wt;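 further: after 48 h exposure read by CellTiter-Glo luminescence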
Where a name gives a salt, the structure may show the parent alone.
Catalogue of cell viability values
readout_type: cell viability (%)

- compound: "Oc1ccc(Cc2nc3c(Cc4ccccc4)nc(-c4ccc(O)cc4)cn3c2O)cc1"
  observed_value: 98
- compound: "CC(C)C1=CC2=CC[C@@H]3[C@](C)(CCC[C@@]3(C)C(=O)O)[C@H]2CC1"
  observed_value: 95.5
- compound: "N#CN=C(NCCCCCCOc1ccc(Cl)cc1)Nc1ccncc1"
  observed_value: 6.39
- compound: "CCCCCC(=O)O[C@]1(C(C)=O)CC[C@H]2[C@@H]3CCC4=CC(=O)CC[C@]4(C)[C@H]3CC[C@@]21C [Hydroxyprogesterone caproate]"
  observed_value: 23.7
- compound: "O=C(O)c1cn(-c2ccc(F)cc2)c2cc(N3CCNCC3)c(F)cc2c1=O [Sarafloxacin HCl]"
  observed_value: 102
- compound: "COc1cc(/C=C/C(=O)O[C@H]2[C@H](O)[C@@H](CO)O[C@@]2(CO)O[C@H]2O[C@H](CO)[C@@H](O)[C@H](O)[C@H]2O)ccc1O"
  observed_value: 95.7
- compound: "CN1CC[C@@H](NC(=O)Nc2ccc(C#N)cc2)C[C@@H]1c1nc2ccccc2[nH]1"
  observed_value: 112
- compound: "COc1cc(C(=O)NC2CCN(C)CC2)ccc1Nc1ncc2c(n1)N(C1CCCC1)CC(F)(F)C(=O)N2C"
  observed_value: 9.85
- compound: "Cc1cnc(Nc2ccc(OCCN3CCCC3)cc2)nc1Nc1cccc(S(=O)(=O)NC(C)(C)C)c1"
  observed_value: 1.39
- compound: "Cc1cc(Nc2ccc(NC(=O)c3ccc(Nc4ccnc5ccccc45)cc3)cc2)nc(N)n1"
  observed_value: 0.27
- compound: "C#CCN[C@@H]1CCc2ccccc21 [Rasagiline mesylate]"
  observed_value: 107
- compound: "COc1cc(Nc2c(C#N)cnc3cc(OCCCN4CCN(C)CC4)c(OC)cc23)c(Cl)cc1Cl [Bosutinib (SKI-606)]"
  observed_value: 7.73
- compound: "COc1cc(C(C)=O)ccc1O"
  observed_value: 93.7
- compound: "CC(C)[N+]1(C)[C@@H]2CC[C@H]1C[C@@H](OC(=O)C(CO)c1ccccc1)C2 (some centres undefined) [Ipratropium bromide]"
  observed_value: 118
- compound: "OC1CCC(Nc2ncc3nc(Nc4c(F)cc(F)cc4F)n([C@H]4CCOC4)c3n2)CC1 (some centres undefined)"
  observed_value: 122
- compound: "C[C@@H](C(=O)Nc1ccc(Cl)cc1)C1CCC(c2ccnc3ccc(F)cc23)CC1 (some centres undefined)"
  observed_value: 54.5
- compound: "C[C@]1(O)C[C@@H](O)[C@@H]2C=CO[C@@H](O[C@@H]3O[C@H](CO)[C@@H](O)[C@H](O)[C@H]3O)[C@@H]21 [Leonuride]"
  observed_value: 102
- compound: "COCCCC/C(=N\\OCCN)c1ccc(C(F)(F)F)cc1 [Fluvoxamine maleate]"
  observed_value: 88.2
- compound: "CCN1CCN(C(=O)N[C@@H](C(=O)N[C@@H]2C(=O)N3C(C(=O)O)=C(CSc4nnnn4C)CS[C@H]23)c2ccc(O)cc2)C(=O)C1=O"
  observed_value: 104
- compound: "O=C(Cc1cccc(OC(F)(F)F)c1)Nc1ccc(CCCCc2nnc(NC(=O)Cc3ccccn3)s2)nn1"
  observed_value: 24.8
- compound: "C[C@@]1(C(=O)Nc2ccc(F)nc2)CCCN1c1nc(Nc2cc(C3CC3)n[nH]2)c2cccn2n1"
  observed_value: 19.3
- compound: "Cc1cc(C)nc(NC(=S)N2CCN(Cc3ccc(C(F)(F)F)cc3)CC2)c1"
  observed_value: 54
- compound: "C[C@@H]1CC[C@@]2(OC1)O[C@H]1C[C@H]3[C@@H]4CC=C5C[C@@H](O[C@@H]6O[C@H](CO)[C@@H](O)[C@H](O)[C@H]6O)CC[C@]5(C)[C@H]4CC[C@]3(C)[C@H]1[C@@H]2C"
  observed_value: 98.5
- compound: "O=c1[nH]c(=O)n([C@H]2C[C@H](O)[C@@H](CO)O2)cc1C(F)(F)F"
  observed_value: 26.8
- compound: "COc1cc2c(N3CCN(C(=O)Nc4ccc(OC(C)C)cc4)CC3)ncnc2cc1OCCCN1CCCCC1"
  observed_value: 43.5
- compound: "CCCN(CCC)C(=O)C1=Cc2ccc(-c3ccc(C(=O)N4CCCC4)cc3)cc2N=C(N)C1"
  observed_value: 29
- compound: "CC(C)=CCC[C@](C)(O[C@@H]1O[C@H](CO)[C@@H](O)[C@H](O)[C@H]1O)[C@H]1CC[C@]2(C)[C@@H]1[C@H](O)C[C@@H]1[C@@]3(C)CC[C@H](O)C(C)(C)[C@@H]3[C@@H](O[C@@H]3O[C@H](CO)[C@@H](O)[C@H](O)[C@H]3O)C[C@]12C [Ginsenoside Rg1]"
  observed_value: 104
- compound: "CCCCC(CC)COC(=O)C(C#N)=C(c1ccccc1)c1ccccc1 (centres undefined)"
  observed_value: 99.9
- compound: "C[C@H](Oc1ccc(S(C)(=O)=O)cc1C(=O)N1CCN(c2ncc(C(F)(F)F)cc2F)CC1)C(F)(F)F"
  observed_value: 104
